# Test system: Target C
# Method Notes: HiBiT protein abundance assay, Target C
# Type: cell-based, human
# Assay Setup: Homo sapiens, K562, 24 h, Table 13A, modified K562 cells
pIC50: −log10 of the molar value.
Test Readout: pIC50

Compound	Recorded Result
Cn1cc(-c2ccc(-c3ccc(OC4CC(C)(C)NC(C)(C)C4)nn3)c3[nH]ncc23)nn1 [Compound 325]	< 5.00
CN(c1ccc(-c2ccc(-c3cnn(C)c3)c3scnc23)nn1)C1CC(C)(C)NC(C)(C)C1 [Compound 175]	5.00 to 6.00
CN(c1ncc(-c2ccc(-c3cn[nH]c3)c3ncsc23)nn1)[C@@H]1CC2CCC[C@@H](C1)N2C [Compound 573]	5.00 to 6.00
CC1(C)CN(c2ncc(-c3ccc(-c4cn[nH]c4)c4ncsc34)nn2)CC(C)(C)N1 [Compound 563]	5.00 to 6.00
CC(C)(C)NC1CCN(c2ncc(-c3ccc(-c4cn[nH]c4)c4ncsc34)nn2)C1 (stereo not drawn) [Compound 569]	5.00 to 6.00
CN(c1ccc(-c2ccc(-c3cn[nH]c3)c3c2NC(=O)C3)nn1)[C@@H]1C[C@H]2CC[C@@H](C1)N2 [Compound 123]	< 5.00
CN1C[C@@H]2CN(c3ccc(-c4ccc(-c5cn[nH]c5)c5ncsc45)nn3)C[C@@H]2C1 [Compound 198]	< 5.00
CN(c1ccc(-c2ccc(-c3cn[nH]c3)c3ncsc23)nn1)[C@H]1[C@@H]2CNC[C@@H]21 [Compound 205]	5.00 to 6.00
c1n[nH]cc1-c1ccc(-c2ccc(N3CCC4(CCNCC4)C3)nn2)c2[nH]ncc12 [Compound 239]	< 5.00
